Test system: NCI-H460
experiment.notes: NCI tumour cell line growth inhibition, 48 h
Activity calls are given as the source filed them. No stated cut-off is given here; in the data, active = GI50 up to about 1.1 µM and inactive = higher.
# output must be one of active, inactive

Consider the following illustrative entries.
O=C1c2ccccc2C(=O)c2c(OCC3CO3)ccc(OCC3CO3)c21 (centres undefined)	inactive
Nc1nc(N)c(-c2ccccc2)c(C(=O)Nc2nccs2)n1	inactive
CN(C)CCN1C(=O)c2cccc3cc(N)cc(c23)C1=O [AMONAFIDE]	active

Prompt: Which result was noted for this compound in the test: C/C=C(\C)C(O)C(C)C(O)C/C=C(C)/C=C(\C)C/C(C)=C/C/C=C(\C)C(O)C(C)c1ccc(CCC)c(=O)o1 (centres undefined)
Response: inactive

Prompt: Which result was noted for this compound in the test: Clc1ccc2c(c1)-c1c3c(nn1-c1ccccc1)-c1ccccc1SC3O2 (centres undefined)
Response: inactive

Prompt: Which result was noted for this compound in the test: COc1nc(NC2OC(COC(C)=O)C(OC(C)=O)C(OC(C)=O)C2OC(C)=O)c(/N=C/C=N/c2c(NC3OC(COC(C)=O)C(OC(C)=O)C(OC(C)=O)C3OC(C)=O)nc(OC)n(C)c2=O)c(=O)n1C (centres undefined)
Response: inactive

Prompt: Which result was noted for this compound in the test: CCCCCCCCCCCCCCCCCCNc1ccn(C2OC(CO)C(O)C2O)c(=O)n1 (centres undefined)
Response: inactive

Prompt: Which result was noted for this compound in the test: `NC1=NNC2(C(N)=N1)c1ccccc1-c1ccccc12`
Response: inactive

Prompt: Which result was noted for this compound in the test: `C[C@H](N)C(=O)N[C@@H]1[C@H]2C(=C(O)C[C@@H](O)[C@@H]2O)C(=O)O[C@]1(C)C(Cl)Cl`
Response: active

Prompt: Which result was noted for this compound in the test: `CC1=C(C(=O)Nc2cc(F)c(F)cc2F)C(c2ccc3c(c2)OCO3)C(C(=O)Nc2cc(F)c(F)cc2F)=C(C)N1`
Response: inactive

These measurements were taken from ChEMBL document CHEMBL1201862.
